# systemTested: butyrylcholinesterase (BChE) from equine serum (Equus caballus, UniProt P81908)
# Construct: BChE equine serum Lyophilized (CAS 9001-08-5 Sigma-Aldrich GmbH USA); purchased Sigma-Aldrich CAS 9001-08-5 (catalogue number not given); host or cells: equine serum
# Sequence (P81908 whole entry): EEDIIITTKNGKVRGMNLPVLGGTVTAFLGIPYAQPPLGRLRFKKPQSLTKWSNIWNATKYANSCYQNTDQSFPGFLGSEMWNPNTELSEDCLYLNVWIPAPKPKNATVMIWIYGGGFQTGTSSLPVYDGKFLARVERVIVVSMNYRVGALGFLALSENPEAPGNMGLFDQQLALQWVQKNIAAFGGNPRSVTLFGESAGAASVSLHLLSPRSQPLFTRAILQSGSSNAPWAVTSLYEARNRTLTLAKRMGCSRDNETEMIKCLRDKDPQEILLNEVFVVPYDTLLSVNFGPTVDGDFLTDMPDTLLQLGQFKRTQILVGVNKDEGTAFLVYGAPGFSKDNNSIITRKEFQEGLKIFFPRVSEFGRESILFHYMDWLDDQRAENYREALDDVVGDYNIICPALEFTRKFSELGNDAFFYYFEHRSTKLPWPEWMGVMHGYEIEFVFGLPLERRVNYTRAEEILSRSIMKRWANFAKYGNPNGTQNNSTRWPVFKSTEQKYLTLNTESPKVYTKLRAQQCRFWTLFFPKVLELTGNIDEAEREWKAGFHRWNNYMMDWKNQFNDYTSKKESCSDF
# assayProcedure: Butyrylcholinesterase inhibition assay (Ellman's spectrophotometric assay)
# Type: biochemical
# studyConditions: read-out: Percent AChEI (mean ± SEM) (Table 3, butyrylcholinesterase inhibition)
We begin with a simple list: items and their reported inhibition at 250 µg/mL.
Please give a number only; it is taken to be in %.

COc1ccc2c3c1O[C@H]1C[C@@H](O)C=C[C@@]31CCN(C)C2 [Galanthamine, reference compound] ... 71.7
CCOC(=O)C1(C2CC(=O)N(c3ccccc3)C2=O)CCCCC1=O (centres unmarked) ... 78.2
CCOC(=O)C1(C2CC(=O)N(Cc3ccccc3)C2=O)CCCC1=O (centres unmarked) ... 84.2
CCOC(=O)C1(C2CC(=O)N(c3ccccc3)C2=O)CCCC1=O (centres unmarked) ... 72.5

Then this compound:
Reported inhibition at 250 µg/mL of CCOC(=O)C1(C2CC(=O)N(Cc3ccccc3)C2=O)CCCCC1=O (centres unmarked) : 87.5

* * *

We begin with a simple list: items and their reported IC50.
# systemTested: butyrylcholinesterase (BChE) from equine serum (Equus caballus)
# Construct: BChE equine serum Lyophilized (CAS 9001-08-5 Sigma-Aldrich GmbH USA)
# assayProcedure: Butyrylcholinesterase inhibition assay (Ellman's spectrophotometric assay)
# studyConditions: from 250-1000 μg/mL tested concentrations
Please give a number only; it is taken to be in µM.

Worked examples, 2 compounds total:
CCOC(=O)C1(C2CC(=O)N(c3ccccc3)C2=O)CCCC1=O (stereo not shown) ... 128
CCOC(=O)C1(C2CC(=O)N(Cc3ccccc3)C2=O)CCCCC1=O (stereo not shown) ... 5.6

Then this compound:
Recorded IC50 for CCOC(=O)C1(C2CC(=O)N(c3ccccc3)C2=O)CCCCC1=O (stereo not shown) on butyrylcholinesterase (BChE) from equine serum (Equus caballus) was 20.4

* * *

# assayProcedure: DPPH free radicals scavenging assay
# studyConditions: from 250-1000 μg/mL tested concentrations
We begin with a simple list: items and their reported IC50 (DPPH free radicals scavenging).

CCOC(=O)C1(C2CC(=O)N(c3ccccc3)C2=O)CCCCC1=O (centres unmarked) ... 535 µg/mL
CCOC(=O)C1(C2CC(=O)N(Cc3ccccc3)C2=O)CCCC1=O (centres unmarked) ... 460 µg/mL
CCOC(=O)C1(C2CC(=O)N(c3ccccc3)C2=O)CCCC1=O (centres unmarked) ... 440 µg/mL
O=C1O[C@H]([C@@H](O)CO)C(O)=C1O [Ascorbic acid, reference compound] ... 20 µg/mL

Then this compound:
Reported IC50 (DPPH free radicals scavenging) of CCOC(=O)C1(C2CC(=O)N(Cc3ccccc3)C2=O)CCCCC1=O (centres unmarked) : >1000 µg/mL
